- protocol-summary: self-splicing fitness, log relative to wild type (ln ratio); higher = more splicing; Tetrahymena group I intron in knt gene, E. coli kanamycin selection, DiMSum; sequences stand for … in CUCUCU…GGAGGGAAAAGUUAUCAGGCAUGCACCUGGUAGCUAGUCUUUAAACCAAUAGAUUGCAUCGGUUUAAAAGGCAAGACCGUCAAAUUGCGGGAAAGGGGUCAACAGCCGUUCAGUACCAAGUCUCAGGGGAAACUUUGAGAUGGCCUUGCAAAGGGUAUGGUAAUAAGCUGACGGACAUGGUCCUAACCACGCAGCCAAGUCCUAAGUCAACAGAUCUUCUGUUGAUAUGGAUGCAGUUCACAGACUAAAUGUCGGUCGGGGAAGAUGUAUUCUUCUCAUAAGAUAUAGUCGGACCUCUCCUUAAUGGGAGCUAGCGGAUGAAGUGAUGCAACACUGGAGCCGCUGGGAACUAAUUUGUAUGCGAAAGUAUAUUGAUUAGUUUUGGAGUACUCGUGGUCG;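 note: selection with 25 µg/mL kanamycin versus none on LB agar overnight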
- condition-label: 37 °C
Assign self-splicing fitness (ln) to each entry below.

>  <sequence-record>
GGUCAGCAAUAUUACGAAGU

>  <self-splicing fitness (ln)>
-0.336

$$$$
>  <sequence-record>
AACAAGCAAUAUUACGGGCG

>  <self-splicing fitness (ln)>
-1.08

$$$$
>  <sequence-record>
AAACAGCAAUAUUACGGGUU

>  <self-splicing fitness (ln)>
-1.8

$$$$
>  <sequence-record>
CGCGAGCAAUAUUACGUUAC

>  <self-splicing fitness (ln)>
-1.78

$$$$
>  <sequence-record>
CGUUAGCAAUAUUACGAUCC

>  <self-splicing fitness (ln)>
-0.851

$$$$

Could you tell me self-splicing fitness (ln) for each of these sequences? They are listed below.
1. AGCCAGCAAUAUUACGGAAU
2. AGUCAGCAAUAUUACGACUU

Reply:
1: -1.52; 2: -1.96

Ask: Look at this sequence and give its reported self-splicing fitness (ln). GAAUAGCAAUAUUACGGCUU
Reply: 0.303

---

- protocol-summary: self-splicing fitness, log relative to wild type (ln ratio); higher = more splicing; Tetrahymena group I intron in knt gene, E. coli kanamycin selection, DiMSum; sequences stand for … in CUCUCU…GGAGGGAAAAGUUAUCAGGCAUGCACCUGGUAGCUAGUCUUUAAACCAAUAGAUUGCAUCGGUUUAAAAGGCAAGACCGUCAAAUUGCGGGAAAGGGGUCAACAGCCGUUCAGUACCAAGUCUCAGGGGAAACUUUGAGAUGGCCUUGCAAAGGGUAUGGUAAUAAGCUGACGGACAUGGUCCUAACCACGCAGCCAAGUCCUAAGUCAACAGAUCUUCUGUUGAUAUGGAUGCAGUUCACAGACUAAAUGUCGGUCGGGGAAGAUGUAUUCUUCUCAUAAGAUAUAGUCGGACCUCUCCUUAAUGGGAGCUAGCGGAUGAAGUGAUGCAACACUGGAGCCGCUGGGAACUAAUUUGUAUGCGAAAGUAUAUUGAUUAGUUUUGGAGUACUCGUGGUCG
- condition-label: 30 °C
Returns one of Condition met or Condition not met; Condition met when self-splicing fitness (ln) is >= -1.

Ask: # check: self-splicing fitness (ln) of GUUAAGCAAUAUUACGAUGU is greater than or equal to -1
Reply: Condition not met

Ask: # check: self-splicing fitness (ln) of AUAAAGCAAUAUUACGGACG is greater than or equal to -1
Reply: Condition met

Ask: # check: self-splicing fitness (ln) of CCUCAGCAAUAUUACGGUUC is greater than or equal to -1
Reply: Condition not met

Ask: # check: self-splicing fitness (ln) of GGAAAGCAAUAUUACGUCUA is greater than or equal to -1
Reply: Condition met

Ask: # check: self-splicing fitness (ln) of AUUGAGCAAUAUUACGCAUG is greater than or equal to -1
Reply: Condition not met

Ask: # check: self-splicing fitness (ln) of GUGGAGCAAUAUUACGGUUU is greater than or equal to -1
Reply: Condition not met

Ask: # check: self-splicing fitness (ln) of CCGUAGCAAUAUUACGUGGU is greater than or equal to -1
Reply: Condition not met

Ask: # check: self-splicing fitness (ln) of GAUGAGCAAUAUUACGACAG is greater than or equal to -1
Reply: Condition not met

---

- protocol-summary: self-splicing fitness, log relative to wild type (ln ratio); higher = more splicing; Tetrahymena group I intron in knt gene, E. coli kanamycin selection, DiMSum; sequences stand for … in CUCUCU…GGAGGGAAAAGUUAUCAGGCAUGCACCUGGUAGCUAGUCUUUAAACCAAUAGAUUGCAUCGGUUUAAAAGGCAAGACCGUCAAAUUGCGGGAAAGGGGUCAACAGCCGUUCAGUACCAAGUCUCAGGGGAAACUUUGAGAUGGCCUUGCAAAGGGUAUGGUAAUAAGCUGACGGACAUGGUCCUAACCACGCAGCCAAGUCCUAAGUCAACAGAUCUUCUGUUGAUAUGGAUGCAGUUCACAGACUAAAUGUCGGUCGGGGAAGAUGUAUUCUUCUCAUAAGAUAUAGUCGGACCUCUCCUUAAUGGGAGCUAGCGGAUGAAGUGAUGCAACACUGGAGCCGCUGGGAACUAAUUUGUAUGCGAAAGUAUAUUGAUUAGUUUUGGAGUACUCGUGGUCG
- condition-label: 37 °C
Returns one of class 1 or class 0; class 1 when self-splicing fitness (ln) is >= -2.

>  <sequence-record>
GGGCAGCAAUAUUACGGGAC

>  <class-name>
class 1

$$$$
>  <sequence-record>
CCGAAGCAAUAUUACGAUAG

>  <class-name>
class 1

$$$$
>  <sequence-record>
CACGAGCAAUAUUACGCUAU

>  <class-name>
class 0

$$$$
>  <sequence-record>
ACCUAGCAAUAUUACGAUAC

>  <class-name>
class 1

$$$$
>  <sequence-record>
GAACAGCAAUAUUACGGCAC

>  <class-name>
class 1

$$$$
>  <sequence-record>
GAAGAGCAAUAUUACGAUAG

>  <class-name>
class 0

$$$$
>  <sequence-record>
UGGCAGCAAUAUUACGGAGU

>  <class-name>
class 0

$$$$
>  <sequence-record>
CGAUAGCAAUAUUACGAUGC

>  <class-name>
class 1

$$$$

Ask: # check: self-splicing fitness (ln) of GCAUAGCAAUAUUACGACUA is greater than or equal to -2
Reply: class 1

Ask: # check: self-splicing fitness (ln) of UUUCAGCAAUAUUACGCCGU is greater than or equal to -2
Reply: class 1

Ask: # check: self-splicing fitness (ln) of CGACAGCAAUAUUACGGGGC is greater than or equal to -2
Reply: class 0

---

- protocol-summary: self-splicing fitness, log relative to wild type (ln ratio); higher = more splicing; Tetrahymena group I intron in knt gene, E. coli kanamycin selection, DiMSum; sequences stand for … in CUCUCU…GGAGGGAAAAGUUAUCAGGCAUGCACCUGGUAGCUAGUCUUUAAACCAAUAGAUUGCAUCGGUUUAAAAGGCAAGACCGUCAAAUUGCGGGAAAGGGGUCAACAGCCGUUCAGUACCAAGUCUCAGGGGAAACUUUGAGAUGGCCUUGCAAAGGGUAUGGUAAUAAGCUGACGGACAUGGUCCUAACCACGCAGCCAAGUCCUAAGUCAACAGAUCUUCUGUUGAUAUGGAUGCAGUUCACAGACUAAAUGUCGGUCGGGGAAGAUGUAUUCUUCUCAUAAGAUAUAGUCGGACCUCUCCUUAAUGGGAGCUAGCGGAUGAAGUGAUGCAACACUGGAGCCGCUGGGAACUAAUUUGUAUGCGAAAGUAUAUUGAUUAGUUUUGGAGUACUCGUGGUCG
- condition-label: 30 °C
Returns one of 1 (yes) or 0 (no); 1 (yes) when self-splicing fitness (ln) is >= -1.

>  <sequence-record>
ACGCAGCAAUAUUACGUACC

>  <class-name>
0 (no)

$$$$
>  <sequence-record>
ACUGAGCAAUAUUACGAAGU

>  <class-name>
0 (no)

$$$$
>  <sequence-record>
ACCAAGCAAUAUUACGGUGC

>  <class-name>
0 (no)

$$$$
>  <sequence-record>
AGGCAGCAAUAUUACGUUCG

>  <class-name>
1 (yes)

$$$$

Ask: # check: self-splicing fitness (ln) of UAAAAGCAAUAUUACGCGGC is greater than or equal to -1
Reply: 0 (no)

Ask: # check: self-splicing fitness (ln) of CGUAAGCAAUAUUACGCAGU is greater than or equal to -1
Reply: 0 (no)

Ask: # check: self-splicing fitness (ln) of ACUUAGCAAUAUUACGAGAA is greater than or equal to -1
Reply: 0 (no)

---

- protocol-summary: self-splicing fitness, log relative to wild type (ln ratio); higher = more splicing; Tetrahymena group I intron in knt gene, E. coli kanamycin selection, DiMSum; sequences stand for … in CUCUCU…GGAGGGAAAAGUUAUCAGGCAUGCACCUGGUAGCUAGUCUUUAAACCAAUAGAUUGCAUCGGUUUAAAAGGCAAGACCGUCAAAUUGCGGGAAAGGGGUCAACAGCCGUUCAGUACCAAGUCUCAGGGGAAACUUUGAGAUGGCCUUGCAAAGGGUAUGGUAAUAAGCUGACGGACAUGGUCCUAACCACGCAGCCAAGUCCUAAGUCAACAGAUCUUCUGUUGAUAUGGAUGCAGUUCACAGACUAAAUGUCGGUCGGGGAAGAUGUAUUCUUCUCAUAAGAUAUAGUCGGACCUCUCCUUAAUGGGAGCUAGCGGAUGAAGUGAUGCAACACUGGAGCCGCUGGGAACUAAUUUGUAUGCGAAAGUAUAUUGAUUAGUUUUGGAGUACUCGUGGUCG
- condition-label: 30 °C
Dear colleague, classification is by self-splicing fitness (ln), with ranges listed here: LOW = under -3, MEDIUM = from -3 up to -0.5, HIGH = -0.5 and over

>  <sequence-record>
GAUAAGCAAUAUUACGACUU

>  <class-name>
HIGH

$$$$

Ask: Which category fits this record: UUAAAGCAAUAUUACGACGA
Reply: HIGH

Ask: Which category fits this record: UGCUAGCAAUAUUACGACGA
Reply: HIGH

Ask: Which category fits this record: AGAAAGCAAUAUUACGUCUC
Reply: MEDIUM
